experiment: Clearance in C57BL/6N mouse at 1 mg/kg, iv and 2 mg/kg, po; assay type: ADME, organism-based; conditions: in vivo
molecules and their reported clearance
Response body: numeric value in mL/min/kg, unit text excluded.

- MOLECULE: "c1ccc(-c2c[nH]c([C@H]3Cc4c([nH]c5ccccc45)[C@@H](C4CCOCC4)N3)n2)cc1"
  READOUT UNITS: "mL/min/kg"
  clearance: 15
- MOLECULE: "c1ccc(-c2c[nH]c([C@H]3Cc4c([nH]c5ccccc45)C(C4CCCCC4)N3)n2)cc1 (some centres undefined)"
  READOUT UNITS: "mL/min/kg"
  clearance: 95
- MOLECULE: "CCCCC1(CCCC)N[C@@H](c2nc(-c3ccccc3)c[nH]2)Cc2c1[nH]c1ccccc21"
  READOUT UNITS: "mL/min/kg"
  clearance: 126

Would you mind telling me what clearance value was observed for CCOCC1(COCC)N[C@@H](c2nc(-c3ccccc3)c[nH]2)Cc2c1[nH]c1ccccc21 ?
31
